meta.source: patent US20180320179A1

System: Zymoseptoria tritici (SEPTTR-184)
Assay: Cyp51 dsRNA tile (fragment) foliar application bioassay (Example 6)
Assay type: in vivo
Conditions: 3 days curative; rate 50 ppm; average of 2 trials
property-measured: Disease Control (%) SEPTTR-184 3DC
Quick reminder: number only, in %, skip the unit.

Q: Quick one: Disease Control (%) SEPTTR-184 3DC of MgCyp51-T6: dsRNA tile of Zymoseptoria tritici Cyp51, 280 bp, location 881-1160 (nucleic acid, listed as Zymoseptoria tritici) ATGCCATTCCCGACAAGGAGATTGCTCATATGATGATTGCGCTGCTCATGGCCGGCCAGCACTCTTCATCTGCGACCGAGTCCTGGATCACTCTCCGCCTCGCATCCCGCCCCGACATCCAAGACGAACTCCTCCAAGAACAAAAGGATATGCTCGGTGTGAACGCCGACGGCAGTATCAAGGAGCTCACATACGCCAACCTCTCGAAACTCACCCTCCTCAATCAAGTCGTCAAAGAAACCCTTCGTATTCACGCTCCAATCCACTCCATTCTGCGCAA ?
A: 55
